Values compiled from paper PMC7826789.

# Tested on: TESK1;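 also: KINOMEscan scanMAX binding as percent activity remaining versus control; lower means stronger binding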
# condition label: Compound Concentration (nM):1000
Measured Percent Control by item
measurement type: Percent Control

1. Cl.O=C(Nc1ccc(Oc2ccc3[nH]c(NC(=O)c4ccccc4)nc3c2)cc1)Nc1cc(C(F)(F)F)ccc1F [GW709042A] | 96%
2. Cl.c1ccc(Cc2nc3ccc(Nc4ncnc5ccccc45)cc3[nH]2)cc1 [GR269666A] | 100%
3. NS(=O)(=O)c1ccc(N/N=C2\C(=O)Nc3ccc(C(=O)NCc4ccncc4)cc32)cc1 [GW300657X] | 100%
4. CN(C)CCNC(=O)Nc1ccc(N(C)c2ccnc(Nc3ccc(CS(C)(=O)=O)cc3)n2)cc1.Cl [GW830900A] | 100%
5. O=C1Nc2ccc(C(=O)c3ccco3)cc2C1=Cc1cc(Cl)c(O)c(Cl)c1 [GW406108X] | 100%
6. O=C(Nc1n[nH]c2nc(-c3ccc(O)cc3)c(Br)cc12)C1CC1 | 100%
7. C/C(Nc1ccc(S(N)(=O)=O)cc1)=C1/C(=O)Nc2ccccc21 [GW335962X] | 100%
8. C[C@@H](Oc1cc(-n2cnc3ccc(OC4CCN(C)CC4)cc32)sc1C(N)=O)c1ccccc1Cl [GSK579289A] | 72%
9. Cl.O=C(Nc1ccc(Oc2ccc3[nH]c(NC(=O)c4ccco4)nc3c2)cc1)Nc1cc(C(F)(F)F)ccc1F [GW683134A] | 71%
10. COc1cc(C)c(N(C)C(=O)CN(C)C)cc1Nc1nc(Nc2cccc(F)c2C(N)=O)c2cc[nH]c2n1 | 92%
